Examples of molecules with documented viability, T/C follow.
- System: 186277-243-T-J2-PDC complex spheroid growth, % test/control
- method description: Anticancer human tumor 186277-243-T-J2-PDC patient-derived colon adenocarcinoma cell line growth inhibition [Asc]
- settings: second compound 0.316 µM; first compound 0.00316 µM; stronger effect = lower value
- Excerpt: Multicellular complex tumor spheroid response to apoptosis pathway targeting inhibitors Alrizomadlin, Pelcitoclax, and Dasminapant in combination with a variety of drugs and investigational agents in selected tumor cell lines […] Compounds. […] If the clinical Cmax for an agent had not been determined, the highest concentration tested was 10 microM. […]
State the answer as a number, implicitly in %.

Worked examples, 3 molecules total:
>>> val("COc1c(OCCCN2CCOCC2)ccc2c3n(c(=NC(=O)c4cnc(N)nc4)nc12)CCN3 + Cc1c(S(C)(=O)=O)c(-c2cc(F)cc(N3CCN(c4ccc(NS(=O)(=O)c5ccc(NC(CCN6CCC(C(=O)OCCCP(=O)(O)O)CC6)CSc6ccccc6)c(S(=O)(=O)C(F)(F)F)c5)cc4)CC3)c2)c(-c2ccc(Cl)cc2)n1C(C)C")
98
>>> val("CCN1CCN(Cc2ccc(Nc3ncc(F)c(-c4cc(F)c5nc(C)n(C(C)C)c5c4)n3)nc2)CC1 + Cc1c(S(C)(=O)=O)c(-c2cc(F)cc(N3CCN(c4ccc(NS(=O)(=O)c5ccc(NC(CCN6CCC(C(=O)OCCCP(=O)(O)O)CC6)CSc6ccccc6)c(S(=O)(=O)C(F)(F)F)c5)cc4)CC3)c2)c(-c2ccc(Cl)cc2)n1C(C)C")
95.2
>>> val("Cn1ncnc1[C@H]1c2n[nH]c(=O)c3cc(F)cc(c23)N[C@@H]1c1ccc(F)cc1 + CNC(C)C(=O)NC1CN(S(=O)(=O)c2cccc(S(=O)(=O)N3CCC4CCC(C(=O)NC(c5ccccc5)c5ccccc5)N4C(=O)C(NC(=O)C(C)NC)C3)c2)CCC2CCC(C(=O)NC(c3ccccc3)c3ccccc3)N2C1=O")
108

Need viability, T/C, item NC1CCC(NC2CC2c2ccccc2)CC1 (centres undefined) + CNC(C)C(=O)NC1CN(S(=O)(=O)c2cccc(S(=O)(=O)N3CCC4CCC(C(=O)NC(c5ccccc5)c5ccccc5)N4C(=O)C(NC(=O)C(C)NC)C3)c2)CCC2CCC(C(=O)NC(c3ccccc3)c3ccccc3)N2C1=O
115

---

- System: 186277-243-T-J2-PDC complex spheroid growth, % test/control
- method description: Anticancer human tumor 186277-243-T-J2-PDC cell line growth inhibition [Asc];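 further: spheroids exposed to agents for 7 days; 100% = DMSO vehicle control wells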
- settings: second compound 0.1 µM; first compound 0.3 µM; stronger effect = lower value
viability, T/C listing for selected molecules.
Express it in %; write the number only.

Here are 2 molecules together with their reported answers.
>>> val("CCN1C(C(=O)NC23CCC(C(=O)O)(CC2)CC3)C(c2cccc(Cl)c2F)C2(C(=O)Nc3cc(Cl)ccc32)C12CCCCC2 (stereo not drawn) + Cc1c(S(C)(=O)=O)c(-c2cc(F)cc(N3CCN(c4ccc(NS(=O)(=O)c5ccc(NC(CCN6CCC(C(=O)OCCCP(=O)(O)O)CC6)CSc6ccccc6)c(S(=O)(=O)C(F)(F)F)c5)cc4)CC3)c2)c(-c2ccc(Cl)cc2)n1C(C)C")
73.6
>>> val("CCN1C(C(=O)NC23CCC(C(=O)O)(CC2)CC3)C(c2cccc(Cl)c2F)C2(C(=O)Nc3cc(Cl)ccc32)C12CCCCC2 (stereo not drawn) + CNC(C)C(=O)NC1CN(S(=O)(=O)c2cccc(S(=O)(=O)N3CCC4CCC(C(=O)NC(c5ccccc5)c5ccccc5)N4C(=O)C(NC(=O)C(C)NC)C3)c2)CCC2CCC(C(=O)NC(c3ccccc3)c3ccccc3)N2C1=O")
122

Form: Entry = NC(=O)C(=Cn1cnc(-c2cc(C(F)(F)F)cc(C(F)(F)F)c2)n1)c1cncnc1 + CNC(C)C(=O)NC1CN(S(=O)(=O)c2cccc(S(=O)(=O)N3CCC4CCC(C(=O)NC(c5ccccc5)c5ccccc5)N4C(=O)C(NC(=O)C(C)NC)C3)c2)CCC2CCC(C(=O)NC(c3ccccc3)c3ccccc3)N2C1=O | System = 186277-243-T-J2-PDC complex spheroid growth, % test/control | viability, T/C = ____
24.6
